Would you kindly list First screening IR (inhibition rate) for each of these compounds?
target: human recombinant Yes [a.a. 2–543 (end)] (Homo sapiens); construct: human recombinant Yes [a.a; 2–543 (end)]; purchased BPS Bioscience 40488; assay: ADP-Glo kinase assay, inhibition rates of Yes phosphorylation activity (first and second screening); format: biochemical; settings: first screening; mean of n = 4 wells; 10 μmol L−1 compound
Remember to put the unit after the number in your answer.

Compound: O=C(NCc1ccccc1)Nc1ccc2oc(C3CC3)nc2c1
First screening IR (inhibition rate): 11%

Each of the following entries comes with a recorded value; kindly state First screening IR (inhibition rate) for each.
1. CC(Sc1n[nH]c(/C=C/c2ccccc2)n1)c1nc(C(C)(C)C)no1 (stereo not drawn)
2. CC(C)n1ncc2cc(C(=O)NCc3ccc(-n4ccnc4)c(F)c3)cnc21
3. Cc1ccc(Cn2ncc3c(N4CCN(CCO)CC4)ncnc32)cc1
4. Cc1ccc(Cn2ncc3c(NN)ncnc32)cc1
5. O=C1Nc2ccccc2/C1=C\c1cnn(-c2ccccc2)c1
6. Cc1cc(S(=O)(=O)Nc2cc(-c3ccncc3)nn2C)ccc1Br
7. Cc1cc(Cl)cc(Br)c1OCCNCCN(C)C.Cl

1: 12%; 2: 9%; 3: -13%; 4: 9%; 5: 32%; 6: 54%; 7: 9%

Let me know recorded First screening IR (inhibition rate) for Nc1nc(-c2ccccc2)c2cc(C(=O)c3ccccc3O)cnn12 , thanks.
7%

* * *

target: human recombinant Yes [a.a. 2–543 (end)] (Homo sapiens, UniProt P07947); construct: human recombinant Yes [a.a; 2–543 (end)]; purchased BPS Bioscience 40488; assay: ADP-Glo kinase assay, inhibition rates of Yes phosphorylation activity (first and second screening); format: biochemical; conditions: first screening; mean of n = 4 wells; 10 μmol L−1 compound
Sequence (P07947 2-543): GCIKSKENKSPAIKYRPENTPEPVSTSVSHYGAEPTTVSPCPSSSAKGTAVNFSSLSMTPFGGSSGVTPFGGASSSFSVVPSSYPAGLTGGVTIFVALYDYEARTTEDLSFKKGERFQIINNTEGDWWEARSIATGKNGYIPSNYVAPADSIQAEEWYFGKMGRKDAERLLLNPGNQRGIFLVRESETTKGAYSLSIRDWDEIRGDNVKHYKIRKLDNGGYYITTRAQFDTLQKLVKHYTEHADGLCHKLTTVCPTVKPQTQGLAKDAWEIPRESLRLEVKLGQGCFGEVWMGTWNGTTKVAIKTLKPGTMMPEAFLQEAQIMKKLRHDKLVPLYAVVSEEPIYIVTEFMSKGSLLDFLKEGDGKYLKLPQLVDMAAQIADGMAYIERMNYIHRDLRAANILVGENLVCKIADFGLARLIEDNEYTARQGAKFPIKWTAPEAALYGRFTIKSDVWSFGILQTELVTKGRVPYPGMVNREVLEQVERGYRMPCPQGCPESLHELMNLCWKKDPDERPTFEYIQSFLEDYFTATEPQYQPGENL
Provide the recorded First screening IR (inhibition rate) for the entries that follow.
Give bare numbers, in %.

Molecule: O=C(N/N=C/C=C/c1ccco1)c1ccc(-c2ccc(F)cc2)s1 [Compound Z839335172]
First screening IR (inhibition rate) / %: 6
//
Molecule: O=C(OCc1nc(-c2cccs2)no1)c1ccc2ccccc2n1 [Compound Z51170832]
First screening IR (inhibition rate) / %: 19
//
Molecule: Cc1cc(N2CCc3c(ncn3C3CC3)C2)c2cc(OC(F)F)ccc2n1 [Compound Z1252403274]
First screening IR (inhibition rate) / %: 72

Look at each molecule and report its First screening IR (inhibition rate).
1. Nc1c(Cl)cc(Nc2nccc(C(F)(F)F)n2)cc1Cl [Compound Z318854232]
2. COC(=O)/C(=C\C1=C2OC(c3ccccc3)=CC(c3ccccc3)=C2CCC1)C(C)=O [Compound Z56781644]
3. Cc1ccccc1-c1cc(C(=O)O)c2cnn(C(C)C)c2n1 [Compound Z56643722]
4. CCN(CC)c1ccc(/C=C2\CCC(/C=N/NC(=O)NC3CCCCC3)=C2N2CCOCC2)cc1 [Compound Z56769590]
5. COc1ccccc1Nc1ncnc(N)n1 [Compound Z56799636]
6. NS(=O)(=O)c1cccc(S(=O)(=O)Cl)c1 [Compound Z237480338]

1: 7; 2: 7; 3: 8; 4: -9; 5: -3; 6: 3

* * *

target: human recombinant Yes [a.a. 2–543 (end)] (Homo sapiens, UniProt P07947); construct: human recombinant Yes [a.a; 2–543 (end)]; purchased BPS Bioscience 40488; experiment: ADP-Glo kinase assay, inhibition rates of Yes phosphorylation activity (first and second screening); type: biochemical; settings: first screening; mean of n = 4 wells; 10 μmol L−1 compound
Measured metric: First screening IR (inhibition rate) (%)
Answers are plain numbers, in %.

Compound: Cc1sc2ncnc(SCC(=O)Nc3ncc(Cl)c(C)c3Cl)c2c1C
Target entity: human recombinant Yes [a.a. 2–543 (end)] (Homo sapiens, UniProt P07947)
Value units: %
First screening IR (inhibition rate): -1
--
Compound: CCCN(S(=O)(=O)c1ccc(C)cc1)S(=O)(=O)c1ccc(Cl)cc1
Target entity: human recombinant Yes [a.a. 2–543 (end)] (Homo sapiens, UniProt P07947)
Value units: %
First screening IR (inhibition rate): 3
--
Compound: Cc1ccc(NC(=O)C(=O)c2c(-c3ccccc3)cc3ccccn23)cc1S(=O)(=O)N1CCOCC1
Target entity: human recombinant Yes [a.a. 2–543 (end)] (Homo sapiens, UniProt P07947)
Value units: %
First screening IR (inhibition rate): -2

For each listed entry, give its First screening IR (inhibition rate).
1. Cc1noc(C)c1COc1ccc(C(=O)NCCCn2ccc3ccccc32)cc1
2. Cc1c(C(=O)Nc2cnn(C)c2)c(=O)[nH]c2ccccc12

[3, 23]

// for each compound below, give its First screening IR (inhibition rate)
1. O=C(COc1ccc(Br)cc1)Nc1cccc(Cn2ccnc2)c1
2. COc1ccc(OC)c(-n2c(-c3ccc(C)cc3)nn(CN3CCN(c4ccc(O)cc4)CC3)c2=S)c1
3. COC(=O)Cn1ncc2c(NCCCc3cccc(F)c3)ncnc21
4. Cc1cccc(OCC(=O)Nc2ccc(SC(=O)N(C)C)cc2)c1
5. Cc1cc(C)nc(N/N=C/c2ccc3ncccc3c2)n1
6. Cl.Clc1ccc(-c2cc(-c3ccccc3Cl)c3cc(Cl)ccc3n2)cc1

1. 8
2. 10
3. -8
4. -6
5. -6
6. -3

I have 7 compounds here; please give me First screening IR (inhibition rate) for each one.
1. CC(C)NC(=O)N1CCCCCC1C1CCN(c2ncc(C(N)=O)cc2Cl)CC1 (centres unmarked)
2. COc1ccccc1C(=O)Nc1ccc(Nc2nc(-c3ccccc3)c3cc(C)ccc3n2)cc1
3. CN(c1ccc(OC(=O)C23CC4CC(CC(Cl)(C4)C2)C3)cc1)S(=O)(=O)c1ccccc1F
4. O=C1OCCN1Cc1ccc(Nc2nccc(C(F)(F)F)n2)cc1
5. CN1CCC(=O)Nc2cc(C(=O)N(C)C3CCCN(c4ccccc4)C3=O)ccc21 (centres unmarked)
6. COC(=O)c1ccc(COc2ccc(/C=C3/CC(C(C)(C)C)Cc4c3nc3ccccc3c4C(=O)O)cc2OC)cc1 (centres unmarked)
7. CNC(=O)NC(=O)COC(=O)c1cc(-c2ccccc2)nc2c1cnn2Cc1ccccc1

[13, 8, 5, 11, 16, 15, -8]

List reported First screening IR (inhibition rate) for each of these compounds:
1. Cc1c(C)c(C)c(C(=O)OCC(=O)NCC(=O)N2CCCC2)c(C)c1C
2. Cc1cccc(C)c1Nc1nnc(SCC(=O)NC(Cc2c[nH]c3ccccc23)C(=O)O)s1 (centres unmarked)

1. -6
2. 3

Please state, for each entry, its recorded First screening IR (inhibition rate).
1. N#Cc1ccc(-c2cc(-c3ccccc3)c3cc(Br)ccc3n2)cc1
2. Cc1cc(C(NCC(=O)Nc2cccc(C(=O)N(C)C)c2)C(C)C)c(C)s1 (centres unmarked)
3. CCN(C1CCS(=O)(=O)C1)S(C)(=O)=O (centres unmarked)
4. COC(=O)c1c2c(nc3ccccc13)/C(=C\c1ccc3c(c1)OCO3)CCC2
5. CC(C)N(CC#N)S(=O)(=O)c1ccccc1S(C)(=O)=O

1: -4; 2: -2; 3: 8; 4: -2; 5: -35

Please look at the items below and tell me First screening IR (inhibition rate) for each one, in order.
1. CN(C)c1nc(N)nc(CSCC(=O)Nc2cccc(Cl)c2Cl)n1
2. CC1CC(C)CN(S(=O)(=O)c2cc(S(C)(=O)=O)ccc2Cl)C1 (centres unmarked)

1: 4; 2: 12

Give First screening IR (inhibition rate) for all compounds that follow.
1. CCCn1c(NC(=O)c2ccc3c(c2)S(=O)(=O)N(C(C)C)C3=O)nc2ccccc21
2. O=C(CCc1nnc2n(Cc3ccc(Cl)cc3)c(=O)c3ccccc3n12)NCCCN1CCOCC1

10
-1

Answer for every listed entry: what is its First screening IR (inhibition rate)? The entries follow.
1. CN1/C(=C\C(=O)CN2C(=O)NC3(CCCc4sccc43)C2=O)C(C)(C)c2ccccc21 (centres unmarked)
2. O=C(CSc1ccc2ccccc2n1)Nc1nsc(-c2ccc(Cl)cc2)n1
3. N#CCCN(CCN1CCOCC1)Cc1cn[nH]c1-c1c(F)cccc1F

1. -20
2. 67
3. -6

Values from paper PMC5607274
